- TEST NAME: Dissociation constant for matrix metalloprotease stromelysin
READOUT KIND: Dissociation constant (mM)
Kindly provide the numeric value in mM only, without the unit symbol.

> print(dat)
                smiles.input           readout.kind  endpoint.unit  readout.number
1  N#Cc1ccc(-c2ccc(O)cc2)cc1  Dissociation constant             mM            0.02

Below: the item to evaluate.
Look up Dissociation constant: Oc1ccc(-c2ccccc2)cc1 0.3

###

- TARGET ENTITY: Vascular endothelial growth factor A, long form (Homo sapiens, UniProt P15692)
- Sequence (P15692 whole entry): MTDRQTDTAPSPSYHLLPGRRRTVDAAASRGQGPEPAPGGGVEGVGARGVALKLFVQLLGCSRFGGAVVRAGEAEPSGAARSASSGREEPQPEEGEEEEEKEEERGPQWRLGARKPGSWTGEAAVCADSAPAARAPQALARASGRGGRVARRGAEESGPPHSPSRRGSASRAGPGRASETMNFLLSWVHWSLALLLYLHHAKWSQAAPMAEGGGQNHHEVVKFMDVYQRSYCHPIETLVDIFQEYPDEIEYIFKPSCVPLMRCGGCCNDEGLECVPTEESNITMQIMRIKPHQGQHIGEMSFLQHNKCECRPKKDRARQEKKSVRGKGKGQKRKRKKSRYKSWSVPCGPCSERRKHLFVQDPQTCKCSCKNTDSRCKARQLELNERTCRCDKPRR
- TEST NAME: Dissociation constant against VEGF (vascular endothelial growth factor) was determined.
READOUT KIND: Dissociation constant

> print(dat)
                        smiles.input  result
1               Oc1ccc(-c2ccccc2)cc1  > 5 mM
2     O=C(O)c1cc(Br)cc(-c2ccccc2)c1O  0.5 mM
3          O=C(O)c1ccc(-c2ccccc2)cc1  > 5 mM
4  O=C(O)c1ccc(-c2cc(Cl)cc(Cl)c2)cc1  > 5 mM

Below: the item to evaluate.
Look up Dissociation constant: N#Cc1ccc(-c2ccc(O)cc2)cc1 > 5 mM
